Molecular target: RSV protein F (recombinant or purified F protein) (human respiratory syncytial virus, …)
Test: SPR Biacore 3000, Fab over amine-coupled recombinant protein F
result_type: Kd (nM)

binder	endpoint_result
Fab fragment of antibody 858 (Fab, V domains shown, also called Fab clone 858) VH: QVQLVQSGAEVKKPGSSVKVSCKASGGSFDGYTISWLRQAPGQGLEWMGRVVPTLGFPNYAQKFQGRVTVTADRSTNTAYLELSRLTSEDTAVYYCARMNLGSHSGRPGFDMWGQGTLVTVSS VL: DIQMTQSPSSVSASVGDRVTITCQASQDISNYLNWYQQKPGKAPKLLIFDATKLETGVPTRFIGSGSGTDFTVTITSLQPEDVATYYCQHFANLPYTFGQGTKLEIKR	0.007
Fab fragment of antibody 819 (Fab, V domains shown) VH: QVQLQESGPGLVKPSQTLSLTCTVSSGAISGADYYWSWIRQPPGKGLEWVGFIYDSGSTYYNPSLRSRVTISIDTSKKQFSLKLTSVTAADTAVYYCARDLGYGGNSYSHSYYYGLDVWGRGTTVTVSS VL: EIVLTQSPATLSLSPGERATLSCRASQSVSSSLAWYQQTPGQAPRLLIYDASYRVTGIPARFSGSGSGIDFTLTISSLEPEDFAVYYCQQRSNWPPGLTFGGGTKVEIKR	0.14
Fab fragment of antibody 810 (Fab, V domains shown, also called Fab clone 810) VH: QVQLVQSGAEVKKSGSSVKVSCRASGGTFGNYAINWVRQAPGQGLEWVGRIIPVFDTTNYAQKFQGRVTITADRSTNTAIMQLSSLRPQDTAMYYCLRGSTRGWDTDGFDIWGQGTMVTVSS VL: NIQMTQSPSAMSASVGDRVTITCRASQGISNYLVWFQQKPGKVPKRLIYAASSLQSGVPSRFSGSGSGTEFTLTISSLQPEDFATYYCLQHNISPYTFGQGTKLETKR	0.2
Fab fragment of antibody 831 (Fab, V domains shown, also called Fab clone 831) VH: QVQLVQSGAEVKKPGASVKVSCKASANIFTYAMHWVRQAPGQRLEWMGWINVGNGQTKYSQRFQGRVTITRDTSATTAYMELSTLRSEDTAVYYCARRASQYGEVYGNYFDYWGQGTLVTVSS VL: DIQMTQSPSTLSASVGDRLTITCRASQNIYNWLAWYQQKPGKAPKLLIYDASTLESGVPSRFSGSGSGTEFTLTISSLQPDDFATYYCQQYNSLSPTFGQGTKVEIKR	1.13
Fab fragment of antibody 735 (Fab, V domains shown, also called Fab clone 735) VH: QVQLQESGPGLVKPSETLSLTCTVSNGAIGDYDWSWIRQSPGKGLEWIGNINYRGNTNYNPSLKSRVTMSLRTSTMQFSLKLSSATAADTAVYYCARDVGYGGGQYFAMDVWSPGTTVTVSS VL: EIVLTQSPATLSLSPGERATLSCRASQSVNSHLAWYQQKPGQAPRLLIYNTFNRVTGIPARFSGSGSGTDFTLTISSLATEDFGVYYCQQRSNWPPALTFGGGTKVEIKR	0.226
Fab fragment of antibody 817 (Fab, V domains shown, also called Fab clone 817) VH: QVQLVESGGGVVQPGRSLRLSCAASGFGFNTHGMHWVRQAPGKGLEWLSIISLDGIKTHYADSVKGRFTISRDNSKNTVFLQLSGLRPEDTAVYYCAKDHIGGTNAYFEWTVPFDGWGQGTLVTVSS VL: EIVMTQSPATLSASPGERATLSCWASQTIGGNLAWYQQKPGQAPRLLIYGASTRATGVPARFSGSGSGTEFTLAISSLQSEDFAVYYCQQYKNWYTFGQGTKLELKR	0.82
Fab fragment of antibody 818 (Fab, V domains shown) VH: QVTLRESGPAVVKPTETLTLTCAFSGFSLNAGRVGVSWIRQPPGQAPEWLARIDWDDDKAFRTSLKTRLSISKDSSKNQVVLTLSNMDPADTATYYCARTQVFASGGYYLYYLDHWGQGTLVTVSS VL: DIQMTQSPSSLSASVGDRVTITCRASQTIASYVNWYQQKPGRAPSLLIYAASNLQSGVPPRFSGSGSGTDFTLTISGLQPDDFATYYCQQSYSYRALTFGGGTKVEIKR	0.115
